Cited source: paper PMC12830989

- Tested on: bone-marrow derived mouse dendritic cells (BMDCs)
- method: Glyco-PAINT-APP single-molecule glycan binding on live WT BMDC
- experimental conditions: Suppl. Fig 9, glycan SLP, BMDC + CytD, median
readout kind: kon (evts μm−2 sec−1)
Dear colleague, please return just the value in evts μm−2 sec−1, with no unit written.

GET /values?readout=kon&item= Ac-Lys(triMan)-Gly-Lys(triMan)-TEG-Asp-Glu-Val-Ser-Gly-Leu-Glu-Gln-Leu-Glu-Ser-Ile-Ile-Asn-Phe-Glu-Lys-Leu-Ala-Ala-Ala-Ala-Ala-Lys(sCy5)-NH2 (DEVSGLEQLESIINFEKLAAAAAK; two Lys(triMan), TEG, sulfo-Cy5, C-amide; printed: Asp-Glu-Val-Ser-Gly-Leu-Glu-Gln-Leu-Glu-Ser-Ile-Ile-Asn-Phe-Glu-Lys-Leu-Ala-Ala-Ala-Ala-Ala-Lys) [2 Tri(5), bivalent trimannosylated OVA SLP with sulfo-Cy5] 7
